System: NCI/ADR-RES ovarian
Assay: NCI tumour cell line growth inhibition, 48 h
value_kind: TGI

INSERT INTO measurements (compound_structure, reported_measurement) VALUES
  ('CC(=O)N[C@@H](Cc1ccc(OP(=O)(O)O)cc1)C(=O)N[C@H]1CCC(=O)N2CCC[C@@H](C(=O)NCc3cccc4ccccc34)N2C1=O', '> 25 µM'),
  ('CNc1cccc(-c2cc(=O)c3cc4c(cc3[nH]2)OCO4)c1', '0.568 µM'),
  ('O=C1CNC(=O)N1', '> 1120 µM'),
  ('O=c1cc(CN2CCCCC2)[nH]c2c1ccc1nc(CN3CCCCC3)cc(=O)n12', '> 100 µM'),
  ('C/C(CC(O)(C(F)(F)Cl)C(F)(F)Cl)=N\Nc1ccccc1', '> 100 µM');
